// molecules with reported IC50 on Autotaxin (Homo sapiens, UniProt Q13822), multi-publication

In the examples that follow, each entry is paired with its recorded IC50.
O=C(O)C1CCN(C(=O)CN2C(=O)c3cc(-c4ccc(Cl)cc4)nn3C3COCC32)CC1 (stereo not drawn)
≥ 1000 nM
CC(C)[C@@H](NC(=O)c1cc(-c2ccccc2)ccc1F)C(=O)N1CCC(C)(Nc2ccc(S(C)(=O)=O)cc2)CC1
100 to 500 nM
COc1ccc(COC(=O)N2CCc3cc(C(=O)N4CCc5[nH]nnc5C4)nn3CC2)c(C)c1
94 nM
CCCCC1CN(CNC(=O)CC#N)C(=O)c2cc(-c3ccc(Cl)cc3)nn21 (stereo not drawn)
10 to 100 nM
O=C(OCc1ccc(C(F)(F)F)cc1C1CC1)N1CC[C@@H]2CN(C(=O)c3ccc4[nH]nnc4c3)C[C@H]2C1 (relative stereo)
21 nM

The observed IC50 for CC(C)(CN1C(=O)C2Cc3c(n(Cc4ccc(F)cc4)c4ncccc34)CN2C1=O)C(=O)O (stereo not drawn) when tested with Autotaxin (Homo sapiens, UniProt Q13822) stands at < 500 nM

Form field IC50 for item `Cc1cc(OCc2n[nH]c(=O)n2C)c(-c2c(F)ccc3c2oc(=O)n3C)cc1Cl` on Autotaxin (Homo sapiens, UniProt Q13822): 15 nM

Summary line: Cc1c(Sc2cccc(C(=O)O)c2)c2ccc(Cl)c(F)c2n1CC(=O)N1CCC(c2ccc(F)cc2)C1 (single isomer, unassigned; enantiomer a) , Autotaxin (Homo sapiens, UniProt Q13822), reported IC50 = 500 to 3000 nM
